Reported pIC50 is given for each of the following binders.
- testTarget: HLA-A*0301 (human)
- protocolText: inhibition of 125I probe peptide binding to purified HLA
pIC50: −log10 of the molar value. Where no end group is shown, it is not given here. [ ]: non-standard residue; d: D form. Abu = CC[C@H](N)C(=O)O

binder	pIC50
BVNBSQFLK (B at positions 1 and 4 = alpha-amino butyric acid (in place of cysteine), synthetic analog peptide; also called BVNBSQFLK) [Her2/neu.528.B1B4K9]	7.47
HVVPWDQLFK (synthetic analog peptide) [Her2/neu.478.V2K10]	6.74
IVWKDIFHK (synthetic analog peptide) [Her2/neu.167.V2]	7.64
ILKGGVLIQR (synthetic peptide) [Her2/neu.148]	6.56
RTVCAGGCAR (synthetic peptide) [Her2/neu.217]	5.79
ISWLGLRSLR (synthetic peptide) [Her2/neu.450]	6.57
TV[Abu]AGG[Abu]AK (synthetic analog peptide; also called TVBAGGBAK) [Her2/neu.218.B3B7K9]	7.62
TV[Abu]AGG[Abu]AR (synthetic analog peptide; also called TVBAGGBAR) [Her2/neu.218.B3B7]	6.50
IVWLGLRSLR (synthetic analog peptide) [Her2/neu.450.V2]	6.63
IVKGGVLIQK (synthetic analog peptide) [Her2/neu.148.V2K10]	7.59
IVWLGLRSLK (synthetic analog peptide) [Her2/neu.450.V2K10]	8.41
HTVPWDQLFR (synthetic peptide) [Her2/neu.478]	5.50
ILWKDIFHK (synthetic peptide) [Her2/neu.167]	7.41
IVWKDIFHR (synthetic analog peptide) [Her2/neu.167.V2R9]	6.84

// provenance: patent US20040018971A1
